Source of measurements: patent US20220396632A1

// reported EC50 per item
assayed.target: T1, PSGL-1 endogenously expressed on HL-60 cells (UniProt Q14242 42-412)
T1 construct: whole, on cells
T1 sequence (looked up): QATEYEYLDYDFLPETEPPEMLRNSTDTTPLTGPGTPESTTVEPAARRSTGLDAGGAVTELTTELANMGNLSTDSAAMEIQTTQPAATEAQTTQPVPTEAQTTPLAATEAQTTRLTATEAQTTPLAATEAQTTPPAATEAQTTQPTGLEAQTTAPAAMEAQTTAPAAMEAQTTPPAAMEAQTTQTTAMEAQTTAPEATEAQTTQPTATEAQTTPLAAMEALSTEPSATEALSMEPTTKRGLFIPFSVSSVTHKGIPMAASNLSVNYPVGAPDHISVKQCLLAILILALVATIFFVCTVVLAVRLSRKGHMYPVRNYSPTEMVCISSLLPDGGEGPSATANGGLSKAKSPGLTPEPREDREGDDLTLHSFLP
measurement.protocol: flow cytometry on HL-60 cells
readout.label: EC50

>  <binder>
20I15.002 (antibody, IgG4, V domains shown, Humanised) VH: EVQLVESGGGLVQPGGSLRLSCAASGFTFTDYYMSWVRQAPGKGLEWLGFIRNKASGYTTEYSASVKGRFTISRDNSKNSLYLQMNSLKTEDTAVYYCARTYLRRGYFDVWGQGTLVTVSS VL: DIQLTQSPSTLSASVGDRVTITCRASKSVSTSGYSYMHWFQQKPGKAPKLLIYLASNLESGVPSRFSGSGSGTEFTLTISSLQPDDFATYYCQHSRELPLTFGQGTKLEIK

>  <readout.label>
EC50

>  <result>
1 nM

$$$$
>  <binder>
19L04.002 (antibody, IgG4, V domains shown, Humanised) VH: QIQLVQSGSELKKPGASVKVSCKASGYTFTTYGMSWVRQAPGQGLKWMGWINTYSGVPTYADDFKGRFVFSLDTSVSTAYLQISSLKAEDTAVYFCARHYYGSHYFDYWGQGTLVTVSS VL: DIVMTQSPDSLAVSLGERATIRCKSSQSLLSSSNQKNYLAWYQQKPGQPPKLLVYFASTRESGVPDRFSGSGSGTDFTLTISSLQAEDVAVYYCQQHYFSPLTFGQGTKLEIK

>  <readout.label>
EC50

>  <result>
2.5 nM

$$$$
>  <binder>
19L04 (antibody, IgG4, V domains shown, From mouse immunisation; only variable domains given) VH: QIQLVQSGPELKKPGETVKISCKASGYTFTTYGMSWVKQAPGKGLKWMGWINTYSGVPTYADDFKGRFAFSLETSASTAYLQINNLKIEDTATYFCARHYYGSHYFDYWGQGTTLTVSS VL: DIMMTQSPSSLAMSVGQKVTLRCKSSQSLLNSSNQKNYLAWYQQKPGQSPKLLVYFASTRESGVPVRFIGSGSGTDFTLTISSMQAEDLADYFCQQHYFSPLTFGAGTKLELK

>  <readout.label>
EC50

>  <result>
2 nM

$$$$
>  <binder>
20I15.004 (antibody, IgG4, V domains shown, Humanised) VH: EVKLVESGGGLVQPGGSLRLSCAASGFTFTDYYMSWVRQAPGKGLEWLGFIRNKAQGYTTEYSASVKGRFTISRDNSQNSLYLQMNSLKTEDTAVYYCARTYLRRGYFDVWGQGTLVTVSS VL: DIQLTQSPSTLSASVGDRVTITCRASKSVSTSGYSYMHWFQQKPGKAPKLLIYLASNLESGVPSRFSGSGSGTEFTLTISSLQPDDFATYYCQHSRELPLTFGQGTKLEIK

>  <readout.label>
EC50

>  <result>
1 nM

$$$$
